# targetSystem: Indoleamine 2,3-dioxygenase 1 (Homo sapiens)
# Sequence (P14902 whole entry): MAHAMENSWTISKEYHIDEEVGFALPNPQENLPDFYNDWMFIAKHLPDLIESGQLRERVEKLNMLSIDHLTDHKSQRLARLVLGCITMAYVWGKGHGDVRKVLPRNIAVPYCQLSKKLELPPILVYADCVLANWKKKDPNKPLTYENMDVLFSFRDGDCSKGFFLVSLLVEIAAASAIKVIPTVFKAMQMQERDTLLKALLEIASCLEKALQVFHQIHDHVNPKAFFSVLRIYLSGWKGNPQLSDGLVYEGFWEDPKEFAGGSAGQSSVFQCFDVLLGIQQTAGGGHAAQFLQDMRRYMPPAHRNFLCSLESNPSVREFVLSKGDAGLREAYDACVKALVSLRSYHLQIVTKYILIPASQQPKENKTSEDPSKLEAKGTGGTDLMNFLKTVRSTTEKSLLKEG
# assayProtocol: Inhibition of human IDO1 in HEK293 cells after 20 hrs by plate reader assay
# Type: cell-based
pIC50: −log10 of the molar value.
propertyLabel: pIC50

> print(dat)
                                   compound                              targetsystem  propertylabel  result
1  CC(C)CN(CC(C)C)c1ccc(C(CC(=O)O)C(F)(F)F)cc1NC(=O)Nc1ccc(F)cc1F (stereo not drawn)  Indoleamine 2,3-dioxygenase 1 (Homo sapiens)          pIC50    8.52

P = Cc1ccc(CC(=O)Nc2cc(-c3ccccc3-c3nnn[nH]3)ccc2N2CC3CC2CN3Cc2ccccc2)cc1 (stereo not drawn)
Q = CCCC(CCC)Oc1c(Br)cc(-c2ccccc2-c2nnn[nH]2)cc1NC(=O)Nc1ccccc1F
Incoming: Please tell me which of the two, P or Q , has the higher reported pIC50 value. Kindly state the label of the option you pick.
Outgoing: Q
(Q: 8.52, P: 8.30)
